From: the supplement of paper PMC7661543

# Test system: BT-20
# Assay notes: relative cell number vs DMSO control (72 h) (% of DMSO); higher = less growth inhibition (more cells)
# Settings: sgRNA knockout: sgNT, 1000 nM
Parameter measured: relative cell number

{"columns": ["Molecule", "Test value"],
 "data": [
  ["CN(Cc1cnc2nc(N)nc(N)c2n1)c1ccc(C(=O)N[C@@H](CCC(=O)O)C(=O)O)cc1 [Methotrexate]", 51.2],
  ["N.N.[Cl][Pt][Cl] [Cisplatin]", 111],
  ["O=P1(NCCCl)OCCCN1CCCl (centres undefined) [Ifosfamide]", 110],
  ["C=CCn1c(=O)c2cnc(Nc3ccc(N4CCN(C)CC4)cc3)nc2n1-c1cccc(C(C)(C)O)n1 [MK1775]", 42.9],
  ["COCC[n+]1c2c(n(Cc3cnccn3)c1C)C(=O)c1ccccc1C2=O [YM155]", 5.07],
  ["CC(C)C[C@H](NC(=O)CNC(=O)c1cc(Cl)ccc1Cl)B(O)O [MLN2238]", 40.2],
  ["COc1cccc2cc(-c3nc([C@H]4CC[C@H](C(=O)O)CC4)n4ncnc(N)c34)[nH]c12 [OSI027]", 83.4],
  ["Cn1cnc2c(F)c(Nc3ccc(Br)cc3Cl)c(C(=O)NOCCO)cc21 [Selumetinib]", 99.2],
  ["Cc1cc(N2CCOCC2)cc2[nH]c(-c3c(NC[C@@H](O)c4cccc(Cl)c4)cc[nH]c3=O)nc12", 94]
]}

====

# Tested on: HCC-38
# Assay notes: relative cell number vs DMSO control (72 h) (% of DMSO); higher = less growth inhibition (more cells)
# Settings: sgRNA knockout: sgNT, 10000 nM
Please note: rule met applies when relative cell number is 80 or greater, and rule not met applies otherwise.

{"columns": ["Smiles structure", "Assigned category"],
 "data": [
  ["C[C@]1(O)C[C@@H](c2nc(-c3ccc4ccc(-c5ccccc5)nc4c3)c3c(N)nccn32)C1", "rule not met"],
  ["Nc1ccn([C@@H]2O[C@H](CO)[C@@H](O)C2(F)F)c(=O)n1", "rule not met"],
  ["Cc1c(Cn2c(C)nc3c(C(=O)O)cc(N4CCOCC4)cc32)cccc1C(F)(F)F", "rule met"],
  ["CC(C)n1cnc2c(NCCc3ccc(O)cc3)nc(-c3csc4ccccc34)nc21", "rule met"],
  ["CC[C@H](Nc1ncnc2[nH]cnc12)c1nc2cccc(F)c2c(=O)n1-c1ccccc1", "rule met"],
  ["COC(=O)[C@]12CCC(C)(C)C[C@H]1[C@H]1C(=O)C=C3[C@@]4(C)C=C(C#N)C(=O)C(C)(C)[C@@H]4CC[C@@]3(C)[C@]1(C)CC2", "rule not met"],
  ["C=CCn1c(=O)c2cnc(Nc3ccc(N4CCN(C)CC4)cc3)nc2n1-c1cccc(C(C)(C)O)n1", "rule not met"]
]}

====

# Test system: SKBR3
# Assay notes: relative cell number vs DMSO control (72 h) (% of DMSO); higher = less growth inhibition (more cells)
# Settings: sgRNA knockout: sgNT, 100 nM
Catalogue of compounds with associated relative cell number

{"columns": ["Compound", "Measured target", "relative cell number"],
 "data": [
  ["COc1cc(-n2c(=S)[nH]c3ccccc3c2=O)c(Cl)cc1Cl [Mdivi1]", "SKBR3", 104],
  ["CC[C@]1(O)C[C@H]2CN(CCc3c([nH]c4ccccc34)[C@@](C(=O)OC)(c3cc4c(cc3OC)N(C=O)[C@H]3[C@@](O)(C(=O)OC)[C@H](OC(C)=O)[C@]5(CC)C=CCN6CC[C@]43[C@@H]65)C2)C1 [Vincristine]", "SKBR3", 3.5],
  ["Cc1[nH]c(/C=C2\\C(=O)Nc3ccc(S(=O)(=O)N(C)c4cccc(Cl)c4)cc32)c(C)c1C(=O)N1CCN(C)CC1", "SKBR3", 102]
]}

====

# Test system: BT-20
# Assay notes: relative cell number vs DMSO control (72 h) (% of DMSO); higher = less growth inhibition (more cells)
# Settings: sgRNA knockout: sgNT, 1000 nM
Catalogue of compounds with associated relative cell number
Parameter measured: relative cell number

{"columns": ["Compound", "Parameter measured", "Test value"],
 "data": [
  ["CC[C@H](Nc1ncnc2[nH]cnc12)c1nc2cccc(F)c2c(=O)n1-c1ccccc1 [CAL101]", "relative cell number", 88.6],
  ["Cc1sc2c(c1C)C(c1ccc(Cl)cc1)=N[C@@H](CC(=O)OC(C)(C)C)c1nnc(C)n1-2 [(+)-JQ1]", "relative cell number", 108],
  ["Cc1ccc(C(=O)N(CCCN)[C@@H](c2oc3cc(Cl)ccc3c(=O)c2Cc2ccccc2)C(C)C)cc1", "relative cell number", 33.7],
  ["COC(=O)Nc1nc2cc(C(=O)c3ccccc3)ccc2[nH]1 [Mebendazole]", "relative cell number", 25],
  ["COc1cc(Nc2ncc3c(n2)-c2ccc(Cl)cc2C(c2c(F)cccc2OC)=NC3)ccc1C(=O)O [Alisertib]", "relative cell number", 77.8],
  ["CC(C)n1c(/C=C/C(O)CC(O)CC(=O)O)c(-c2ccc(F)cc2)c2ccccc21 (stereo not drawn) [Fluvastatin]", "relative cell number", 97.3],
  ["COc1cc(/C=C/C(=O)CC(=O)/C=C/c2ccc(O)c(OC)c2)ccc1O [Curcumin]", "relative cell number", 95.9],
  ["CS(=O)(=O)c1cccc(CNc2nc(Nc3ccc4c(c3)CCC(=O)N4)ncc2C(F)(F)F)c1", "relative cell number", 106]
]}

====

# System: HCC-38
# Assay notes: relative cell number vs DMSO control (72 h) (% of DMSO); higher = less growth inhibition (more cells)
# Settings: sgRNA knockout: sgNT, 10000 nM

{"columns": ["Compound", "Measured target", "relative cell number"],
 "data": [
  ["COc1cc(Nc2ncc3c(n2)-c2ccc(Cl)cc2C(c2c(F)cccc2OC)=NC3)ccc1C(=O)O [Alisertib]", "HCC-38", 48.4],
  ["c1cc(Nc2cc(C3CC3)[nH]n2)nc(Nc2ccc3nc[nH]c3c2)n1 [APY29]", "HCC-38", 23.3],
  ["COc1cc2nc(N3CCCN(C)CC3)nc(NC3CCN(Cc4ccccc4)CC3)c2cc1OC", "HCC-38", 5.39],
  ["Cc1ccc2c(c1)C(=O)C1(O)CCN(c3ccccc3)C1=N2 (centres undefined) [Blebbistatin]", "HCC-38", 69.5],
  ["O=C(Nc1ccc([N+](=O)[O-])cc1Cl)c1cc(Cl)ccc1O [Niclosamide]", "HCC-38", 46.5],
  ["C[C@@H](Oc1cc(-c2cnn(C3CCNCC3)c2)cnc1N)c1c(Cl)ccc(F)c1Cl [Crizotinib]", "HCC-38", 25.9],
  ["COc1cc2nccc(Oc3ccc(NC(=O)NC4CC4)c(Cl)c3)c2cc1C(N)=O [Lenvatinib]", "HCC-38", 68.4],
  ["Cc1cnc(-c2cnc(NCCNc3ccc(C#N)cn3)nc2-c2ccc(Cl)cc2Cl)[nH]1", "HCC-38", 127],
  ["O=C(NOCC(O)CO)c1cc(Br)c(F)c(F)c1Nc1ccc(I)cc1F (centres undefined)", "HCC-38", 86.2]
]}

====

# System: BT-20
# Assay notes: relative cell number vs DMSO control (72 h) (% of DMSO); higher = less growth inhibition (more cells)
# Settings: sgRNA knockout: sgNT, 100 nM
Please note: 1 applies when relative cell number is 100 or greater, and -1 applies otherwise.

{"columns": ["Compound", "Measured target", "Assigned category"],
 "data": [
  ["CCOC(=O)CCNc1cc(N2CCc3ccccc3CC2)nc(-c2ccccn2)n1 [GSKJ4]", "BT-20", 1],
  ["O=C(/C=C/c1ccc(O)cc1)c1ccc(O)cc1O [Isoliquiritigenin]", "BT-20", -1],
  ["C=CC[C@@H]1/C=C(\\C)C[C@H](C)C[C@H](OC)[C@H]2O[C@@](O)(C(=O)C(=O)N3CCCC[C@H]3C(=O)O[C@H](/C(C)=C/[C@@H]3CC[C@@H](O)[C@H](OC)C3)[C@H](C)[C@@H](O)CC1=O)[C@H](C)C[C@@H]2OC [Tacrolimus]", "BT-20", 1],
  ["CC(C)[C@]12O[C@H]1[C@@H]1O[C@]13[C@]1(O[C@H]1C[C@H]1C4=C(CC[C@@]13C)C(=O)OC4)[C@@H]2O [Triptolide]", "BT-20", -1],
  ["C=C(C)[C@@H]1CC[C@]2(C(=O)O)CC[C@]3(C)[C@H](CC[C@@H]4[C@@]5(C)CC[C@H](O)C(C)(C)[C@@H]5CC[C@]43C)[C@@H]12 [BetulinicAcid]", "BT-20", -1],
  ["CCCS(=O)(=O)Nc1ccc(F)c(C(=O)c2c[nH]c3ncc(Cl)cc23)c1F [PLX4720]", "BT-20", -1]
]}
